FYI, the data here is from patent US20170273922A1.

# IC50 at 72 h values compiled below
assay: MTT assay (cytotoxicity), MCF-7 cells; format: cell-based; settings: human, 72 h treatment, Table 6.1
API: value field is a number in µM; no unit string.

Query smiles: O=C(Nc1cccc(C(F)(F)F)c1)Nc1ccc(NC(=O)c2ccccc2F)c(C(F)(F)F)c1
Quantity unit: µM
Test result: 2.5
//
Query smiles: N#Cc1ccc(NC(=O)N/C=C/c2cccs2)cc1C(F)(F)F
Quantity unit: µM
Test result: 5.2

Read the next record carefully.
Exercise: Using the record for O=C(Nc1cccc(C(F)(F)F)c1)Nc1ccc(C(=O)Nc2ccccc2F)c(C(F)(F)F)c1 , report its IC50 at 72 h.
Key: 4.5

---

Property: IC50; scope: individual compounds
test system: 22Rv1 cells; experiment: MTT assay (cytotoxicity), 22Rv1 cells; type: cell-based; conditions: 72 h, Table 2.2
// return numeric value only (unit: µM, not printed)

Compound: COc1cc([N+](=O)[O-])ccc1NC(=O)N/C=C/c1cccc(C(F)(F)F)c1 [Compound 441]
Test result: 8.3
//
Compound: N#Cc1ccc(NC(=O)N/C=C/c2cc(C(F)(F)F)ccc2C(F)(F)F)cc1 [Compound 468]
Test result: 1.9
//
Compound: COc1cccc(NC(=O)N/C=C/c2cccc(C(F)(F)F)c2)c1 [Compound 417]
Test result: 10.8
//
Compound: N#Cc1ccc(NC(=O)N/C=C/c2ccc(C(F)(F)F)cc2)cc1C(F)(F)F [Compound 421]
Test result: 7.2

Exercise: Need IC50, item Nc1ccc(NC(=O)N/C=C/c2ccc(C(F)(F)F)cc2)cc1 [Compound 462]
Key: 6.3

Exercise: Look up IC50 for this compound: O=C(N/C=C/c1cc(C(F)(F)F)ccc1C(F)(F)F)Nc1ccc([N+](=O)[O-])c(C(F)(F)F)c1 [Compound 436]
Key: 0.8

Exercise: What measured IC50 goes with Cc1ccccc1NC(=O)N/C=C/c1cccc(C(F)(F)F)c1 [Compound 445] ?
Key: 5.2

---

tested on: liver hepatocellular carcinoma; test: MTT assay (72 h), liver hepatocellular carcinoma cell line of Table 6.1; assay type: cell-based; conditions: HepG2 cells, 72 h treatment, read-out: Cytotoxicity (IC50, μM) HepG2
Listing of recorded IC50 by entry.
Reply with just the number (in µM).

Query smiles: O=C(N/C=C/c1cccc(C(F)(F)F)c1)Nc1cnccn1
Quantity unit: µM
IC50: 0.14

Let us examine a further case.
Exercise: Quick one: IC50 of N#Cc1ccc(NC(=O)N/C=C/c2cccc(C(F)(F)F)c2)cc1C(F)(F)F ?
Key: 0.92

---

assay: MTT assay (cytotoxicity), 22Rv1 cells; type: cell-based; details: human, 22Rv1 cells, 72 h, Table 5.1
IC50 at 72 h values by entry
Express the result in µM but write the number alone.

Exercise: Reported IC50 at 72 h for O=C(N/C=C/c1cccc(C(F)(F)F)c1)Nc1cccc(NC(=O)N/C=C/c2cccc(C(F)(F)F)c2)c1 [Compound 440] : what is it?
Key: 4.9

Exercise: Any idea what IC50 at 72 h was measured for O=C(N/C=C/c1cccc(C(F)(F)F)c1)Nc1ccccc1NC(=O)N/C=C/c1cccc(C(F)(F)F)c1 [Compound 451] ?
Key: 4.4

Exercise: IC50 at 72 h for O=C(N/C=C/c1cc(C(F)(F)F)cc(C(F)(F)F)c1)Nc1ccn(C(=O)N/C=C/c2cc(C(F)(F)F)cc(C(F)(F)F)c2)c(=O)n1 [Compound 532] ?
Key: 4.3

---

experiment: MTT assay (cytotoxicity), DU145 cells; format: cell-based; settings: human, DU145 cells, Table 5.1
Property: IC50 at 72 h; scope: individual compounds

Completed entries (count: 3):
Compound: CC(C)(C)OC(=O)n1cc(/C=C/NC(=O)Nc2ccc(NC(=O)N/C=C/c3cn(C(=O)OC(C)(C)C)c4ccccc34)cc2)c2ccccc21 [Compound 452]
Endpoint name: IC50 at 72 h
Test result: 3.4 µM
//
Compound: O=C(N/C=C/c1cc(C(F)(F)F)cc(C(F)(F)F)c1)Nc1ccn(C(=O)N/C=C/c2cc(C(F)(F)F)cc(C(F)(F)F)c2)c(=O)n1 [Compound 532]
Endpoint name: IC50 at 72 h
Test result: 5.1 µM
//
Compound: O=C(N/C=C/c1cccc(C(F)(F)F)c1)Nc1ccccc1NC(=O)N/C=C/c1cccc(C(F)(F)F)c1 [Compound 451]
Endpoint name: IC50 at 72 h
Test result: 5.4 µM

Here is the next item to consider.
Exercise: // lookup IC50 at 72 h for O=C(N/C=C/c1cccc(C(F)(F)F)c1)Nc1cccc(NC(=O)N/C=C/c2cccc(C(F)(F)F)c2)c1 [Compound 440]
Key: 5.1 µM

---

IC50 at 72 h overview
test: MTT assay (cytotoxicity), LNCaP cells; format: cell-based; details: human, LNCaP cells, 72 h, Table 2.3

Query smiles: O=C(N/C=C/c1cc(C(F)(F)F)cc(C(F)(F)F)c1)Nc1ccc2ncccc2c1
Test result: > 10 µM
//
Query smiles: O=C(N/C=C/c1ccc(C(F)(F)F)cc1)Nc1ccc2c(c1)OCO2
Test result: > 20 µM

Now, please, on to the next molecule.
Exercise: For the molecule O=C(N/C=C/c1cc(C(F)(F)F)cc(C(F)(F)F)c1)Nc1ccc2[nH]ccc2c1 , what IC50 at 72 h is on record?
Key: > 10 µM

---

system: DU145 cells; assay: MTT assay (cytotoxicity), DU145 cells; format: cell-based; details: 72 h, Table 2.1
Endpoint name: IC50 (µM)
Enter your answer as a number in µM; do not include the unit.

Answered examples (4):
Query smiles: O=C(N/C=C/c1cc(C(F)(F)F)cc(C(F)(F)F)c1)Nc1cncc(F)c1
Test result: 3

Query smiles: O=C(N/C=C/c1cc(C(F)(F)F)cc(C(F)(F)F)c1)Nc1cccnc1
Test result: 9.5

Query smiles: O=C(N/C=C/c1cc(C(F)(F)F)cc(C(F)(F)F)c1)Nc1ncccc1Br
Test result: 6.8

Query smiles: N#Cc1ccc(NC(=O)N/C=C/c2cc(C(F)(F)F)ccc2C(F)(F)F)nc1
Test result: 0.8

Now turn to the next compound.
Exercise: Please look up its IC50: O=C(N/C=C/c1cc(C(F)(F)F)cc(C(F)(F)F)c1)Nc1nccc(C(F)(F)F)n1
Key: 1.2

---

experiment: MTT assay (cytotoxicity), 22Rv1 cells; format: cell-based; conditions: human, 22Rv1 cells, 72 h treatment, Table 6.1
The entries below come with measured log10 of IC50 at 72 h values attached.
Values below are the log10 of the recorded IC50 at 72 h, with µM as the unit.

Molecule: O=C(Nc1cccc(C(F)(F)F)c1)Nc1ccc(NC(=O)c2cc(I)ccc2F)c(C(F)(F)F)c1 [Compound 952]
log10 of IC50 at 72 h: 0.89
--
Molecule: O=C(Nc1ccc(C(F)(F)F)cc1)Nc1cc(NC(=O)Nc2ccc(C(F)(F)F)cc2)cc(C(F)(F)F)c1 [Compound 955]
log10 of IC50 at 72 h: -0.05
--
Molecule: O=C(N/C=C/c1cccc(OC(F)(F)F)c1)Nc1ccncn1 [Compound 875]
log10 of IC50 at 72 h: 0.94
--
Molecule: O=C(Nc1cccc(C(F)(F)F)c1)Nc1ccc(F)c(NC(=O)Nc2ccccc2F)c1 [Compound 950]
log10 of IC50 at 72 h: 0.89
--
Molecule: O=C(Nc1cccc(C(F)(F)F)c1)Nc1ccc(NC(=O)c2cc(Cl)ccc2F)c(C(F)(F)F)c1 [Compound 907]
log10 of IC50 at 72 h: 0.62

Note: attention shifts to another entry.
Exercise: Reported log10 of IC50 at 72 h for O=C(Nc1ccc(NC(=O)c2ccccc2F)c(C(F)(F)F)c1)Nc1ccccc1C(F)(F)F [Compound 896] : what is it?
Key: 1.28

---

experiment: MTT assay (cytotoxicity), DU145 cells; assay type: cell-based; settings: human, DU145 cells, Table 2.3
Endpoint name: IC50 at 72 h

# annotated cases, reported IC50 at 72 h shown
Query smiles: O=C(N/C=C/c1ccc(C(F)(F)F)cc1)Nc1ccc2c(c1)OCO2
Endpoint name: IC50 at 72 h
Test result: > 20 µM
//
Query smiles: O=C(N/C=C/c1cccc(C(F)(F)F)c1)Nc1ccc2[nH]ccc2c1
Endpoint name: IC50 at 72 h
Test result: > 10 µM
//
Query smiles: COc1cccc(/C=C/NC(=O)Nc2ccc3c(c2)OCO3)c1
Endpoint name: IC50 at 72 h
Test result: > 20 µM

Exercise: Consider the compound shown here: O=C(N/C=C/c1cccc(C(F)(F)F)c1)Nc1ccc2c(c1)OCO2 What is its recorded IC50 at 72 h?
Key: > 20 µM

Exercise: Look at this compound and give its reported IC50 at 72 h. O=C(N/C=C/c1cc(C(F)(F)F)cc(C(F)(F)F)c1)Nc1ccc2ncccc2c1
Key: > 10 µM

Exercise: IC50 at 72 h lookup needed for O=C(N/C=C/c1cccc(C(F)(F)F)c1)Nc1cnc2ccccc2c1 , thanks.
Key: > 10 µM
